Entries annotated with measured Kd
Target: T1, rat serum albumin (rat, UniProt P02770 25-608)
T1 construct: also called RSA
Assay: SPR, single cycle kinetics, pH 7.4
Report only the number, with the unit nM understood.

M75-H2 (VHH) VHH: EVQLVESGGGLVQPGGSLRLSCAASGRTFDNYVMAWFRQAPGKEREFVSSISGSGSITNYANSVKDRFTISRDNSKNTLYLQMNSLRAEDTAVYYCAAGSRRTYYREPKFYPSWGQGTLVTVSS	2490
R28-H4 (VHH) VHH: QVQLVESGGGLVQPGGSLRLSCAASGRTFIAYAMGWFRQAPGKEREFVAAITNFAGGTTYYADSVKGRFTISRDNAKTTLYLQMNSLRAEDTAVYYCAADRSAQTMRQVRPVLPYWGQGTLVTVSS	1.1

The binder listed as R28 sdAb (VHH, also called R28 VHH) VHH: QVQLVESGGGLVQAGGSLRLSCVASGRTFIAYAMGWFRQAPGKEREFVAAITNFAGGTTYYADSVKGRFTISRDNAKTTVYLQMNSLKPEDTALYYCAADRSAQTMRQVRPVLPYWGQGTQVTVSS has a reported Kd of 0.4
